Tested on: M. tuberculosis clinical isolates, resistant
test-protocol: microbe, parasite or virus in culture
Assay type: cell-based, Mycobacterium tuberculosis
condition-summary: Mycobacterium tuberculosis, read-out: MIC (μg/ml) against Clinical isolates Resistant

compound	MIC
Cc1c(CN2CCN(c3ccccn3)CC2)cc(-c2ccc(Cl)cc2)n1-c1ccc(F)cc1F [compound 47]	1 to 4 µg/mL
Cc1c(CN2CCN(c3ccc(F)cc3)CC2)cc(-c2ccc(Cl)cc2)n1-c1ccc(Cl)cc1 [Compound No. 1]	2 to 4 µg/mL
Cc1c(CN2CCN(c3cccc(C(F)(F)F)c3)CC2)cc(-c2ccccc2)n1-c1ccc(F)cc1F [compound 53]	> 16 µg/mL
COc1ccccc1N1CCN(Cc2cc(C)n(-c3ccc(F)cc3F)c2-c2ccccc2)CC1 [compound 56]	8 to 16 µg/mL
COc1ccccc1N1CCN(Cc2cc(-c3ccc(Cl)cc3)n(-c3ccc(Cl)cc3)c2C)CC1 [Compound No. 2]	0.25 to 1 µg/mL
COc1ccccc1N1CCN(Cc2cc(-c3ccccc3)n(-c3ccc(F)cc3F)c2C)CC1 [compound 52]	8 to 16 µg/mL
Cc1cc(CN2CCN(c3ccccn3)CC2)c(-c2ccccc2)n1-c1ccc(F)cc1F [compound 58]	8 to 16 µg/mL
Cc1c(CN2CCN(c3ncccn3)CC2)cc(-c2ccc(Cl)cc2)n1-c1ccc(Cl)cc1 [compound 5]	0.5 to 2 µg/mL
Cc1c(CN2CCN(c3cccc(C(F)(F)F)c3)CC2)cc(-c2ccc(Cl)cc2)n1-c1ccc(F)cc1F [compound 46]	4 to 16 µg/mL
Cc1c(CN2CCN(c3ccc(F)cc3)CC2)cc(-c2ccccc2)n1-c1ccc(F)cc1F [compound 51]	> 16 µg/mL
Cc1ccc(Cl)cc1N1CCN(Cc2cc(-c3ccc(Cl)cc3)n(-c3ccc(Cl)cc3)c2C)CC1 [compound 10]	1 to 4 µg/mL
Cc1cc(CN2CCN(c3ccc(F)cc3)CC2)c(-c2ccccc2)n1-c1ccc(F)cc1F [compound 55]	> 16 µg/mL
Cc1c(CN2CCN(c3ccccn3)CC2)cc(-c2ccc(Cl)cc2)n1-c1ccc(Cl)cc1 [compound 4]	0.5 to 4 µg/mL
Cc1c(CN2CCN(c3cccc(C(F)(F)F)c3)CC2)cc(-c2ccc(Cl)cc2)n1-c1ccc(Cl)cc1 [Compound No. 3]	0.25 to 0.5 µg/mL
Cc1c(CN2CCN(c3ccc(F)cc3)CC2)cc(-c2ccc(Cl)cc2)n1-c1ccc(F)cc1F [compound 44]	2 to 4 µg/mL
Cc1c(CN2CCN(c3ccccn3)CC2)cc(-c2ccccc2)n1-c1ccc(F)cc1F [compound 54]	4 µg/mL
Cc1cc(CN2CCN(c3cccc(C(F)(F)F)c3)CC2)c(-c2ccccc2)n1-c1ccc(F)cc1F [compound 57]	> 16 µg/mL
CO[C@H]1/C=C/O[C@@]2(C)Oc3c(C)c(O)c4c(O)c(c(/C=N/N5CCN(C)CC5)c(O)c4c3C2=O)NC(=O)/C(C)=C\C=C\[C@H](C)[C@H](O)[C@@H](C)[C@@H](O)[C@@H](C)[C@H](OC(C)=O)[C@@H]1C [Rifampicin, reference compound]	4 to 16 µg/mL
